System: HeLa
assay overview: Antiproliferative activity against human HeLa cells at 10 uM after 96 hrs by MTT assay
Assay type: functional
Decide using inhibition at 10 µM: a value greater than or equal to 30% is True, a smaller one is False.

# compound, label
measured = [
    ("COC(=O)C(Cc1ccccc1)NC(=O)[C@]12CC[C@@H](C)[C@H](C)[C@H]1C1=CC[C@@H]3[C@@]4(C)CC[C@H](OC(C)=O)C(C)(C)[C@@H]4CC[C@@]3(C)[C@]1(C)CC2 (stereo not given in full)", "True"),
    ("C[C@H]1[C@H](C)CC[C@]2(C(=O)NC(Cc3ccc(O)cc3)C(=O)O)CC[C@]3(C)C(=CC[C@@H]4[C@@]5(C)CC[C@H](O)C(C)(C)[C@@H]5CC[C@]43C)[C@H]12 (stereo not given in full)", "False"),
    ("C[C@H]1[C@H](C)CC[C@]2(C(=O)NC(CO)C(=O)O)CC[C@]3(C)C(=CC[C@@H]4[C@@]5(C)CC[C@H](O)C(C)(C)[C@@H]5CC[C@]43C)[C@H]12 (stereo not given in full)", "False"),
    ("CC(=O)O[C@H]1CC[C@]2(C)[C@H]3CC=C4[C@@H]5[C@@H](C)[C@H](C)CC[C@]5(C(=O)NC(C)CO)CC[C@@]4(C)[C@]3(C)CC[C@H]2C1(C)C (stereo not given in full)", "True"),
    ("C[C@H]1[C@H](C)CC[C@]2(C(=O)O)CC[C@]3(C)C(=CC[C@@H]4[C@@]5(C)CC[C@H](O)C(C)(C)[C@@H]5CC[C@]43C)[C@H]12", "False"),
    ("CC(=O)OCCNC(=O)[C@]12CC[C@@H](C)[C@H](C)[C@H]1C1=CC[C@@H]3[C@@]4(C)CC[C@H](OC(C)=O)C(C)(C)[C@@H]4CC[C@@]3(C)[C@]1(C)CC2", "True"),
    ("COC(=O)C(CO)NC(=O)[C@]12CC[C@@H](C)[C@H](C)[C@H]1C1=CC[C@@H]3[C@@]4(C)CC[C@H](OC(C)=O)C(C)(C)[C@@H]4CC[C@@]3(C)[C@]1(C)CC2 (stereo not given in full)", "True"),
    ("COC(=O)C(NC(=O)[C@]12CC[C@@H](C)[C@H](C)[C@H]1C1=CC[C@@H]3[C@@]4(C)CC[C@H](OC(C)=O)C(C)(C)[C@@H]4CC[C@@]3(C)[C@]1(C)CC2)C(C)O (stereo not given in full)", "True"),
    ("CC(=O)O[C@H]1CC[C@]2(C)[C@H]3CC=C4[C@@H]5[C@@H](C)[C@H](C)CC[C@]5(C(=O)NCCO)CC[C@@]4(C)[C@]3(C)CC[C@H]2C1(C)C", "True"),
]
